Molecular target: T1, nonhuman primate CD36 (on HEK 293 cells) (cynomolgus monkey / rhesus macaque, UniProt P16671 2-472 (human entry))
T1 construct: also called non-human primate CD36 (cynomolgus)
T1 sequence (P16671 other isoform, or with tags, fused parts or gaps limits assumed): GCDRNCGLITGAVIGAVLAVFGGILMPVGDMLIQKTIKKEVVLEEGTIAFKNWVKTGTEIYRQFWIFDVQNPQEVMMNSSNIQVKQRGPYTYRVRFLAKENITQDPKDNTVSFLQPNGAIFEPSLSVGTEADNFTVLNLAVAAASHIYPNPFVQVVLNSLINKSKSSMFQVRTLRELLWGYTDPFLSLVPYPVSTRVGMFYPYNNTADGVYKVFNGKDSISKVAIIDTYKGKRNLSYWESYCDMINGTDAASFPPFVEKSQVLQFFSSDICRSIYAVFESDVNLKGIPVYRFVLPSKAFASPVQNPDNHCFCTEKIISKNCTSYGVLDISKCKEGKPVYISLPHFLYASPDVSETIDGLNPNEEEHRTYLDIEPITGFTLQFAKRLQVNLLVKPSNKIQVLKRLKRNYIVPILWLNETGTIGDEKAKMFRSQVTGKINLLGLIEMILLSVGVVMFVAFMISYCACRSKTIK
Assay: FACS, HEK 293 cells transiently overexpressing CD36;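 also: antibody binding to transfected cells detected by flow cytometry with a fluorescent anti-human secondary antibody, EC50 from a four-parameter sigmoidal fit of mean fluorescence intensity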
// EC50 lookup, one value per entry
Report only the number, with the unit nM understood.

- binder: "35G04 (antibody, human IgG1, V domains shown, Chimeric: chicken variable regions on human IgG1 LALA (L234A/L235A); also called 035G04) VH: AVTLDESGGGLQTPGGALSLVCKASGFTFSNYGMGWMRQAPGKGLEFVAKIYKDGGYTGYGAAVDGRATISRDDGQSTVRLQLNDLRAEDTATYFCAKAADSGYLYITDSIDAWGHGTEVIVSS VL: ALTQPSSVSANPGETVKITCSGGSGSYGWFQQKSPGNAPVTVIYHNDQRPSDIPSRFSGSKSGSTATLTITEVQADDEAVYVCGGYDNDNDAGIFGAGTTLTVL"
  EC50, nM: 0.59
- binder: "34G04 (antibody, human IgG1, V domains shown, Chimeric: chicken variable regions on human IgG1 LALA (L234A/L235A); also called 034G04) VH: AVTLDESGGGLQTPGGALSLVCKASGFDFSSYAMGWVRQAPGKGLEWVAGKAKDGGGTAYGSAVKGRATISRDNGQSTVRLQLSNLRAEDTGVYYCAKSAYGDWFYGSSGPYADSIDAWGHGTEVIVSS VL: ALTQPSSVSANPGETVKITCSGGDNYAGSYYYGWYQQKSPGSAPVTVIYDDTNRPADIPSRFSGSTSGSTNTLTITGVRAEDEAVYFCGGWDSINDRNIFGAGTTLTVL"
  EC50, nM: 1.4
- binder: "33G04 (antibody, human IgG1, V domains shown, Chimeric: chicken variable regions on human IgG1 LALA (L234A/L235A); also called 033G04) VH: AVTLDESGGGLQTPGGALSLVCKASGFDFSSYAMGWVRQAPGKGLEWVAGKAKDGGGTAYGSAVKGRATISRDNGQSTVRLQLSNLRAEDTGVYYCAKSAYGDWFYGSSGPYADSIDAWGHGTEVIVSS VL: ALTQPSSVSASPGETVKITCSGSSDSWYGWYQQKSPGSALVTVIYDSTNRPSSIPSRFSGSTSGSTGTLTITGVRADDEAVYFCGSFDSSTDSTAFGAGTTLTVL"
  EC50, nM: 0.52
- binder: "13G04 (antibody, human IgG1, V domains shown, Chimeric: mouse variable regions on human IgG1 LALA (L234A/L235A); also called 013G04) VH: QVQLQQSGAELVRPGASVKLSCKASGYTFTSYWMNWVKQRPGQGLEWIGMIDPSDNETHYNQMFKDKATLTVDKSSSTAYMQLSSLTSEDSAVYYCARSDYGNGYSFYLDVWGAGTTVTVSS VL: DIVLTQSPASLAVSLGQRATISCRASESVDSYGNSFMHWYQQKPGQPPKLLIYRASNLESGIPARFSGSGSRTDFTLTINPVEADDVATYYCQQSNEDPWTFGGGTKLEIK"
  EC50, nM: 1.06

We next turn to a different binder, shown below.
*Q* Data request, read-out EC50, for 28G04 (antibody, human IgG1, V domains shown, Chimeric: mouse variable regions on human IgG1 LALA (L234A/L235A); also called 028G04) VH: EVQLQQSGPELVKPGASVKISCKTSGYTFTEYTIHWVKQSHGKSLEWIGGIIPNNGGSSHKQNFKDKATLTVDKSSSTAYMELRSLTSEDSAVYYCARAGDYAFDYWGQGTTLTVSS VL: ETTVTQSPASLSMAIGEKVTIRCITSTDIDDDMNWYQQKPGEPPKLLISEGNTLRPGVPSRFSSSGYGTDFVFTIENMLSEDVADYYCLQSGTLPFTFGSGTKLEIK
*A* 7.77
